molecular target: Prostaglandin G/H synthase 1 (Homo sapiens)
Sequence (P23219 whole entry): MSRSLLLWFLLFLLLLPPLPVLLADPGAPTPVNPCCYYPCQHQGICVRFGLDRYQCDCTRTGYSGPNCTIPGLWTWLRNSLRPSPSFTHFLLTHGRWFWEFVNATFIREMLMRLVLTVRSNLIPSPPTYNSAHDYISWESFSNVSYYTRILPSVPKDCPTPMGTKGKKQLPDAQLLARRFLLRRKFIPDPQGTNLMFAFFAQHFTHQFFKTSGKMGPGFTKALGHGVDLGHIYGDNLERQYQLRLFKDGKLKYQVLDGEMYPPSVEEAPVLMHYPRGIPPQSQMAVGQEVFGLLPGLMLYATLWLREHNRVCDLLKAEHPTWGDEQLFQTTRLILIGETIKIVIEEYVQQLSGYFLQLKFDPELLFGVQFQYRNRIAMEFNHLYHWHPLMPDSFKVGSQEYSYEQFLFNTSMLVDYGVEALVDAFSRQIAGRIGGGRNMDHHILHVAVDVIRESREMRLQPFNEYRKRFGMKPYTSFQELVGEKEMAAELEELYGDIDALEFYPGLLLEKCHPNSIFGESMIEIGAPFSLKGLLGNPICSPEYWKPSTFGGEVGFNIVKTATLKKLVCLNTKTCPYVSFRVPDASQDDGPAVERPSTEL
pIC50: −log10 of the molar value.

| substance_smiles | pIC50 |
| --- | --- |
| CS(=O)(=O)c1ccc(C2=C(c3ccc(F)cc3)CC3(CC3)C2)cc1 | 5.27 |

* * *

test: physchem; settings: octanol/water
Recorded logP by entry
readout_type: logP

| substance_smiles | result |
| --- | --- |
| CS(=O)(=O)c1ccc(C2=C(c3ccc(F)cc3)CC3(CCC3)C2)cc1 | 4.9 |
| CS(=O)(=O)c1ccc(C2=C(c3ccc(F)cc3)CC3(CC3)C2)cc1 | 4.5 |
| NS(=O)(=O)c1ccc(C2=C(c3ccc(F)cc3)CC3(CCC3)C2)cc1 | 4.1 |
| NS(=O)(=O)c1ccc(C2=C(c3ccc(F)cc3)CC3(CC3)C2)cc1 | 4 |
| CS(=O)(=O)c1ccc(C2=C(c3ccc(F)cc3)CC3(CCCC3)C2)cc1 | 5.4 |
